System: SEM cells
assay-protocol: cell viability relative to DMSO control; higher = less cytotoxic
experimental-parameters: RPMI 5 mM glucose + 10% dialyzed FBS; 48 h; 46.1 µM
value-type: cell viability (%)

compound="Cc1noc(-c2ccc(CSCCC(=O)O)cc2)c1NC(=O)OC(C)c1ccccc1Cl (stereo not given)" target_desc="SEM cells" numeric_value=88.3
compound="CCN1CCCC1CNC(=O)c1cc([S+](N)(=O)[O-])ccc1OC (stereo not given)" target_desc="SEM cells" numeric_value=121
compound=C#CCN[C@@H]1CCc2ccccc21.CS(=O)(=O)O target_desc="SEM cells" numeric_value=86.3
compound=CON(C)C(=O)N1/N=C(S[C@@]1(CCCN)C2=CC=CC=C2)/C3=CC(=CC=C3F)F target_desc="SEM cells" numeric_value=16.4
compound=COC1=CC=C2CN(C)CC[C@@]34\C=C/[C@H](O)C[C@@H]3OC1=C24 target_desc="SEM cells" numeric_value=99.3
compound=C[C@@]1(C(=O)Nc2ccc(F)nc2)CCCN1c1nc(Nc2cc(C3CC3)[nH]n2)c2cccn2n1 target_desc="SEM cells" numeric_value=6.22
compound=CO/N=C(\C(=O)N[C@@H]1C(=O)N2C(C(=O)OCOC(=O)C(C)(C)C)=C(/C=C\c3scnc3C)CS[C@H]12)c1csc(N)n1 target_desc="SEM cells" numeric_value=62.9
compound="Cc1ncc([N+](=O)[O-])n1CC(C)O (stereo not given)" target_desc="SEM cells" numeric_value=14
compound=CNC(=O)CN1CCC(Oc2cc3c(Nc4cccc(Cl)c4F)ncnc3cc2OC)CC1 target_desc="SEM cells" numeric_value=88.8
compound=CCN1CCN(C(=O)Cc2ccc(Nc3ncc(F)c(Nc4ccc(C(=O)Nc5ccccc5Cl)cc4)n3)cc2)CC1 target_desc="SEM cells" numeric_value=14.6
compound=Cc1c[nH]c(-c2cnc(NCCNc3ccc(C#N)cn3)nc2-c2ccc(Cl)cc2Cl)n1 target_desc="SEM cells" numeric_value=3.76
compound=N#C/N=C(\NCCCCCCOc1ccc(Cl)cc1)Nc1ccncc1 target_desc="SEM cells" numeric_value=2.76
compound=NC/1=N/C(=O)N(/C=N1)[C@@H]2O[C@H](CO)[C@@H](O)[C@H]2O target_desc="SEM cells" numeric_value=3.29
compound=OCCn1cc(-c2cnc3nnn(Cc4ccc5ncccc5c4)c3n2)cn1 target_desc="SEM cells" numeric_value=33.4
compound=C=CCc1ccc(O)c(-c2ccc(O)c(CC=C)c2)c1 target_desc="SEM cells" numeric_value=24.6

----------
System: P12-Ichikawa
assay-protocol: cell viability relative to DMSO control; higher = less cytotoxic
experimental-parameters: HPLM + 10% dialyzed FBS; 48 h; 0.00702 µM
value-type: cell viability

molecule=NC(=O)NO result=100%
molecule=COc1cc(CNC(=O)CCCC/C=C/C(C)C)ccc1O result=106%
molecule=CC(C)[C@H](N)C(=O)OCCOC[N]1C=NC2=C1\N=C(N)/NC2=O result=121%
molecule=Nc1ncnc2c1nc(Cl)n2[C@@H]1O[C@H](CO)[C@@H](O)[C@H]1O result=125%
molecule="CC(C)Cc1ccc(C(C)C(=O)O)cc1 (centres undefined)" result=92.1%
molecule=COC(=O)N1CC2(CC2)C[C@H](C(=O)NO)[C@H]1C(=O)N1CCN(c2ccccc2)CC1 result=119%
molecule=CN1CCN(C(=O)O[C@H]2c3nccnc3C(=O)N2c2ccc(Cl)cn2)CC1 result=105%
molecule=CCN1CCN(C(=O)Cc2ccc(Nc3ncc(F)c(Nc4ccc(C(=O)Nc5ccccc5Cl)cc4)n3)cc2)CC1 result=108%
molecule=C[C@]12CC[C@H]3[C@@H](CCC/4=C/C(=O)CC[C@]34C)[C@@H]1CC[C@@H]2OC(=O)CCC5CCCC5 result=104%
molecule=NC(=O)Nc1cc(-c2cccc(F)c2)sc1C(=O)N[C@H]1CCCNC1 result=125%
molecule=CC(C)(O)c1cc2nc(-c3cnc(N)nc3)nc(N3CCOCC3)c2s1 result=122%
molecule=Cn1cc(C[C@@H](N)C(=O)O)c2ccccc21 result=106%
molecule=COc1cc(N2CCC(N(C)C)CC2)ccc1Nc1ncc(Cl)c(Nc2ccccc2P(C)(C)=O)n1 result=110%
molecule="Nc1ncnc2c1c(-c1cccc(OCc3ccccc3)c1)cn2C1CC(CN2CCCC2)C1 (centres undefined)" result=120%
molecule=O=C1NC(=O)/C(=C/c2ccc(-c3ccc(F)cc3O)o2)S1 result=116%
molecule=CC/1=C(\O)C(=O)\C=C2/C1=C/C=C3\[C@@]2(C)CC[C@@]4(C)[C@@H]5C[C@@](C)(CC[C@]5(C)CC[C@]34C)C(O)=O result=103%
molecule=O=C(/C=C/c1ccc(O)cc1)c1ccc(O)cc1O result=95%
molecule=N[S+](=O)([O-])OC[C@@H]1C[C@@H](n2ccc3c(N[C@H]4CCc5ccccc54)ncnc32)C[C@@H]1O result=110%
molecule=CC(C)OC1=CC=C2C(=C1)O\C=C(/C2=O)C3=CC=CC=C3 result=122%
molecule=CCOc1ccc(Cc2cc([C@@H]3O[C@H](CO)[C@@H](O)[C@H](O)[C@H]3O)ccc2Cl)cc1 result=120%
molecule=O=C(Nc1cccnn1)N1CCC(=Cc2cccc(Oc3ccc(C(F)(F)F)cn3)c2)CC1 result=91.4%
molecule=C[C@H]1COC/2=C1/C(=O)C(=O)C3=C4CCCC(C)(C)C4=CC=C23 result=121%
molecule=CNC(=O)[C@H](CC/1=C/N=C\2/C=C\C\C=C12)NC(=O)[C@H](CC(C)C)CC(=O)NO result=103%
molecule=Cc1c[nH]c(-c2cnc(NCCNc3ccc(C#N)cn3)nc2-c2ccc(Cl)cc2Cl)n1 result=80.6%
